Test system: ATP;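 also: ATP exposure 15 min at 22 °C before imaging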
protocol notes: switch fluorescence ratio, 500 uM ATP over buffer (Cy3 cluster intensity, sum of 5 cycles each) (fold (ratio)); higher = stronger signal-on switching upon ATP binding; sequences stand for … in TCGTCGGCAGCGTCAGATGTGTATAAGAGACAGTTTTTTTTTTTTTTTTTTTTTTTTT…TC
assay setup: aptamer strand: ATP DNA aptamer (quencher-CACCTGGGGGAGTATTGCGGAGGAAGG + anchor), 100 nM annealed; ATP concentration: 500 uM
readout kind: switch fluorescence ratio
A bare number is all that is needed in reply.

[
  {
    "sequence string": "TCTTTCAGGA",
    "target desc": "ATP",
    "test value": 0.999
  },
  {
    "sequence string": "GGGAGAAGGA",
    "target desc": "ATP",
    "test value": 1.05
  },
  {
    "sequence string": "TCTAGGACGG",
    "target desc": "ATP",
    "test value": 1
  },
  {
    "sequence string": "GTATTGTTTT",
    "target desc": "ATP",
    "test value": 1.14
  },
  {
    "sequence string": "ATGAGTATTG",
    "target desc": "ATP",
    "test value": 0.989
  }
]

Lookup result for TAACCCGATT ; measured switch fluorescence ratio: 0.997

Lab book: switch fluorescence ratio of TTTTGGTTGT noted as 1.01

// switch fluorescence ratio value for GGGGGTGGG : 1.03

Summary for this sequence, GGTTTGGGAG : switch fluorescence ratio is 1

# switch fluorescence ratio of ATAAAAGGGG = 1

----------
Test system: ATP;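 also: ATP exposure 15 min at 22 °C before imaging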
protocol notes: switch fluorescence ratio, 500 uM ATP over buffer (Cy3 cluster intensity, sum of 5 cycles each) (fold (ratio)); higher = stronger signal-on switching upon ATP binding; sequences stand for … in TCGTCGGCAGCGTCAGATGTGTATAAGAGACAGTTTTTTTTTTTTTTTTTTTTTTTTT…TC
assay setup: aptamer strand: ATP DNA aptamer (quencher-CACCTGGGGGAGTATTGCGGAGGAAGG + anchor), 100 nM annealed; ATP concentration: 500 uM
sequences and their reported switch fluorescence ratio
Just the number, please, no unit after it.

Below, 2 sequences whose answers are already recorded.
[
  {
    "sequence string": "ACAGTTGGGT",
    "target desc": "ATP",
    "switch fluorescence ratio": 1
  },
  {
    "sequence string": "GCTGTTTCCC",
    "target desc": "ATP",
    "switch fluorescence ratio": 0.989
  }
]

Switching to the query record.
The sequence CATGTCAGGA showed switch fluorescence ratio equal to 1.02

----------
Test system: ATP;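 also: ATP exposure 15 min at 22 °C before imaging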
protocol notes: switch fluorescence ratio, 500 uM ATP over buffer (Cy3 cluster intensity, sum of 5 cycles each) (fold (ratio)); higher = stronger signal-on switching upon ATP binding; sequences stand for … in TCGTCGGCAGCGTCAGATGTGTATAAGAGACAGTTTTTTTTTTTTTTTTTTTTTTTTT…TC
assay setup: aptamer strand: ATP DNA aptamer (quencher-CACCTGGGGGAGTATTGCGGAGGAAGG + anchor), 100 nM annealed; ATP concentration: 500 uM
Is switch fluorescence ratio at least 1? Then Condition met. If not, Condition not met.

See these solved cases before continuing.
[
  {
    "sequence string": "GTAAAGCCTG",
    "classification": "Condition not met"
  },
  {
    "sequence string": "GCGTCCGCGG",
    "classification": "Condition met"
  },
  {
    "sequence string": "TGCGAACCTT",
    "classification": "Condition met"
  },
  {
    "sequence string": "TAGAGTGATG",
    "classification": "Condition not met"
  },
  {
    "sequence string": "TTAGTTGGAT",
    "classification": "Condition met"
  }
]

INPUT: Hi team, for TTTCAACTAC , is the recorded switch fluorescence ratio at or above 1?
OUTPUT: Condition met

INPUT: In plain terms: is recorded switch fluorescence ratio at least 1 for GGTGGGAGCA ?
OUTPUT: Condition met

INPUT: Kindly determine if switch fluorescence ratio recorded for TTCCGTATTT is above or exactly 1.
OUTPUT: Condition met

INPUT: Answer whether switch fluorescence ratio of TCGCAGCAGG is greater than or equal to 1.
OUTPUT: Condition met

INPUT: Test whether the sequence TAACGGTGTG records switch fluorescence ratio of 1 or higher.
OUTPUT: Condition not met

INPUT: Is switch fluorescence ratio at least 1? Consider GCTTGGTGTC
OUTPUT: Condition met

----------
Below, each entry is listed alongside its reported switch fluorescence ratio.
System: ATP;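 also: ATP exposure 15 min at 22 °C before imaging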
protocol notes: switch fluorescence ratio, 500 uM ATP over buffer (Cy3 cluster intensity, sum of 5 cycles each) (fold (ratio)); higher = stronger signal-on switching upon ATP binding; sequences stand for … in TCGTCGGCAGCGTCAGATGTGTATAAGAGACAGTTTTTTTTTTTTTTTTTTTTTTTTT…TC
assay setup: aptamer strand: ATP DNA aptamer (quencher-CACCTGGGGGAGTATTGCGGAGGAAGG + anchor), 100 nM annealed; ATP concentration: 500 uM
// keep it numeric: no unit symbol after the value

Worked cases, answers included:
[
  {
    "sequence string": "TTTCTATGGG",
    "target desc": "ATP",
    "switch fluorescence ratio": 1.03
  },
  {
    "sequence string": "TGAGCAGTTG",
    "target desc": "ATP",
    "switch fluorescence ratio": 1.06
  },
  {
    "sequence string": "TAAAGAAGGA",
    "target desc": "ATP",
    "switch fluorescence ratio": 0.977
  },
  {
    "sequence string": "ACTAGGCCGA",
    "target desc": "ATP",
    "switch fluorescence ratio": 1.01
  },
  {
    "sequence string": "GGTATGGTCT",
    "target desc": "ATP",
    "switch fluorescence ratio": 1.02
  },
  {
    "sequence string": "GTTTAGGGGC",
    "target desc": "ATP",
    "switch fluorescence ratio": 0.992
  }
]

Memo: TTCGGGTTTG , reported switch fluorescence ratio: 1

Quick note, switch fluorescence ratio for TGGTTGTTAG landed at 1.01

// ACGTATTCAT : switch fluorescence ratio value = 1.11

// recorded switch fluorescence ratio for CAGGCGGGGA : 1

response.value for GGGTGTTCTG (field: switch fluorescence ratio) = 1.01

Lab note: measured switch fluorescence ratio of CTAGATTGGG was 1.01

----------
Test system: ATP;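 also: ATP exposure 15 min at 22 °C before imaging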
protocol notes: switch fluorescence ratio, 500 uM ATP over buffer (Cy3 cluster intensity, sum of 5 cycles each) (fold (ratio)); higher = stronger signal-on switching upon ATP binding; sequences stand for … in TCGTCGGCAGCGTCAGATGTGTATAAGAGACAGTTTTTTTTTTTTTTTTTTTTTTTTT…TC
assay setup: aptamer strand: ATP DNA aptamer (quencher-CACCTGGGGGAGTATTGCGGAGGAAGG + anchor), 100 nM annealed; ATP concentration: 500 uM
readout kind: switch fluorescence ratio
Note: the reply should be a number with no unit written.

Below are worked cases with known answers.
[
  {
    "sequence string": "GTGGGCCAGG",
    "switch fluorescence ratio": 1.06
  },
  {
    "sequence string": "TTAGGCTGTG",
    "switch fluorescence ratio": 0.986
  }
]

The reported value for CTCAATTATG in terms of switch fluorescence ratio is 0.972

Briefly, switch fluorescence ratio measured for TTACCCTTGG : 1.17

// recorded switch fluorescence ratio for GGTTAGTACT : 0.999

switch fluorescence ratio reported for this sequence CGGGTGTGAG : 1.01

The sequence listed as GATAACGGGG has a reported switch fluorescence ratio of 0.972

Reported switch fluorescence ratio for CAGTAAGTGG was 0.999

Field switch fluorescence ratio (entry GTATGAGGGA ) reads 0.993

----------
Tested on: ATP;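 also: ATP exposure 15 min at 22 °C before imaging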
protocol notes: switch fluorescence ratio, 500 uM ATP over buffer (Cy3 cluster intensity, sum of 5 cycles each) (fold (ratio)); higher = stronger signal-on switching upon ATP binding; sequences stand for … in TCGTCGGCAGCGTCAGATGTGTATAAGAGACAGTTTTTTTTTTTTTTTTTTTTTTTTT…TC
assay setup: aptamer strand: ATP DNA aptamer (quencher-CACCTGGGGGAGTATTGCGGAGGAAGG + anchor), 100 nM annealed; ATP concentration: 500 uM
readout kind: switch fluorescence ratio
Just the number, please.

// sample GACGCGGAAC , its switch fluorescence ratio was 5.48

The value of switch fluorescence ratio measured for the sequence GGTTTATGAC turned out to be 1.13

switch fluorescence ratio measured on TCGATTTCTT = 1.1

# sequence GAGGGCGGGA ; its switch fluorescence ratio = 1.01

Lab note: GTGCAATGTA gave switch fluorescence ratio of 1.1

Entry TTTTCTGACG — recorded switch fluorescence ratio = 1.03

# sequence CAATACTAAC ; its switch fluorescence ratio = 1.32

Recorded result, CCAGAGGTGT , switch fluorescence ratio: 1.6

The reported value for ATTGGTGGTT in terms of switch fluorescence ratio is 1

The sequence identified as AGGAGCTGAA registered its switch fluorescence ratio at 0.987

Form: sequence = CGTGAAAATC ; switch fluorescence ratio = 0.999

Per the records, this sequence ( ATTGGAATTA ) has switch fluorescence ratio equal to 0.985

get_value(item= CCTTTCAGGA , readout=switch fluorescence ratio) returns 0.999

Reported switch fluorescence ratio for GCTGTAAGTA was 0.988

Item: TCAAGAAATC | switch fluorescence ratio: 0.983
